- Test system: HL-60(TB) leukemia
- assay.info: NCI-60 one-dose screen, 48 h (100 = growth as untreated, 0 = no growth, -100 = all killed)
- condition.notes: 10 µM unless noted
The panel holds about 83,000 compounds, 20% with a hit somewhere; the sample as a whole holds those more often. Activity calls are given as the source filed them. The calls were made as follows: active = growth percent below 10; inactive = the rest.
readout.kind: growth

Quick one: growth for C=C(C)[C@@H]1CC[C@]2(COP(=O)(OCC)OCC)CC[C@]3(C)[C@H](CC[C@@H]4[C@@]5(C)CCCNC(C)(C)[C@@H]5CC[C@]43C)[C@@H]12 ?
-56.4% (active)

Item: COCCNc1ccc2ncc(C#Cc3cncc(C(=O)Nc4ccc(CN5CCN(C)CC5)c(C(F)(F)F)c4)c3)n2n1
0.694% (active)

Item: CCC(=O)Nc1ccc(-c2nc(-c3cccc(O)c3)c(-c3ccnc(Br)c3)[nH]2)cc1
35.6% (inactive)

Item: Cn1cc(-c2nc(N)nnc2-c2c[nH]c3ccc(Br)cc23)c2cc(F)ccc21
75.3% (inactive)

Item: COc1ccc(-c2nnc(SCc3ccc(O)c4ncccc34)n2-c2ccccc2)cc1
10.9% (inactive)

Item: Cc1nc2ncc(-c3ccc4ncnc(NCc5ccccc5)c4c3)cc2[nH]1
109% (inactive)

Item: O=C(CCC(=O)N1CCOCC1)OCCCCCCSc1ccc([N+](=O)[O-])c2nonc12
-45.4% (active)

Item: CC1=N[C@@H]2CN(C(=O)OC(C)(C)C)C[C@@H]2n2c1cc1ccccc1c2=O
99.9% (inactive)

Item: COc1cc2nc(-c3ccc(C)cc3)cc(OCCCNCC3CCCO3)c2cc1OC (centres undefined)
48.6% (inactive)
